target: 11β-HSD1 in primary human aortic smooth muscle cells (AoSMC) (Homo sapiens)
Construct: containing 12 ng/mL hTNFα to induce expression of 11β-HSD1; endogenous in cells
assay.overview: Human Aortic Smooth Muscle Cell Assay (cortisone to cortisol conversion)
assay.setup: AoSMC induced with hTNFα, 10 μM cortisone, cortisol by time resolved immunoassay
pIC50: −log10 of the molar value.
measured.metric: pIC50

// below: answered molecules
molecule	target	measured.metric	measured
O=C1C(Cc2ccc(Br)cc2Cl)CCN1[C@H]1CC[C@@H](F)CC1 (stereo partly shown) [Example 11]	11β-HSD1 in primary human aortic smooth muscle cells (AoSMC) (Homo sapiens)	pIC50	8.12
Cn1cc(-c2cc(Cl)c(C[C@@H]3CCN(C4CCC(F)(F)CC4)C3=O)c(Cl)c2)cn1 [Example 6]	11β-HSD1 in primary human aortic smooth muscle cells (AoSMC) (Homo sapiens)	pIC50	8.04

[1] O=C1[C@H](Cc2c(Cl)cc(-c3ccc(F)cc3)cc2Cl)CCN1C1CCC(F)(F)CC1 [Example 3]
[2] O=C1C(Cc2c(Cl)cc(-c3cccnc3)cc2Cl)CCN1[C@H]1CC[C@@H](F)CC1 (stereo partly shown) [Example 12]
// pick min by pIC50: 1 , 2 In your reply, give the label of the chosen option. 1

----------
target: recombinant human 11β-HSD type 1 enzyme (Homo sapiens)
Sequence (P28845 whole entry): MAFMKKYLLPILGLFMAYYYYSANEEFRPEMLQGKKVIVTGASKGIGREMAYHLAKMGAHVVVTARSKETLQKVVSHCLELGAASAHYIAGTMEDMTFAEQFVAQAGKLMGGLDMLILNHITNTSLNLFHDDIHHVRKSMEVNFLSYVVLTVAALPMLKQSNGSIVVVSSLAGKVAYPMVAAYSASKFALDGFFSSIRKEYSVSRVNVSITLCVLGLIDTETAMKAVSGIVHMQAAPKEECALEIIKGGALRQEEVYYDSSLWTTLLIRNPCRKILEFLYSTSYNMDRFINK
assay.overview: 11β-HSD Type 1 Enzyme Assay (NADPH fluorescence)
assay.setup: three hour incubation at room temperature, read-out: Human 11-βHSD1 IC50
pIC50: −log10 of the molar value.
measured.metric: pIC50

// below: answered compounds
compound	pIC50
O=C1[C@H](Cc2c(Cl)cc(-c3ccc(F)cc3)cc2Cl)CCN1C1CCC(F)(F)CC1 [Example 3]	6.44
Cn1cc(-c2cc(Cl)c(C[C@@H]3CCN(C4CCC(F)(F)CC4)C3=O)c(Cl)c2)cn1 [Example 6]	6.52

[P] O=C1C(Cc2ccc(Br)cc2Cl)CCN1[C@H]1CC[C@@H](F)CC1 (stereo partly shown) [Example 11]
[Q] O=C1C(Cc2c(Cl)cc(-c3cccnc3)cc2Cl)CCN1[C@H]1CC[C@@H](F)CC1 (stereo partly shown) [Example 12]
Between the entries labelled P and Q , which has a larger pIC50 value on record? In your reply, give the label of the chosen option. Q
